Values were extracted from patent US11202743B2.

# IC50 per entry
# assayedTarget: recombinant human FAAH enzyme (Homo sapiens (Human), UniProt O00519)
# Sequence (O00519 whole entry): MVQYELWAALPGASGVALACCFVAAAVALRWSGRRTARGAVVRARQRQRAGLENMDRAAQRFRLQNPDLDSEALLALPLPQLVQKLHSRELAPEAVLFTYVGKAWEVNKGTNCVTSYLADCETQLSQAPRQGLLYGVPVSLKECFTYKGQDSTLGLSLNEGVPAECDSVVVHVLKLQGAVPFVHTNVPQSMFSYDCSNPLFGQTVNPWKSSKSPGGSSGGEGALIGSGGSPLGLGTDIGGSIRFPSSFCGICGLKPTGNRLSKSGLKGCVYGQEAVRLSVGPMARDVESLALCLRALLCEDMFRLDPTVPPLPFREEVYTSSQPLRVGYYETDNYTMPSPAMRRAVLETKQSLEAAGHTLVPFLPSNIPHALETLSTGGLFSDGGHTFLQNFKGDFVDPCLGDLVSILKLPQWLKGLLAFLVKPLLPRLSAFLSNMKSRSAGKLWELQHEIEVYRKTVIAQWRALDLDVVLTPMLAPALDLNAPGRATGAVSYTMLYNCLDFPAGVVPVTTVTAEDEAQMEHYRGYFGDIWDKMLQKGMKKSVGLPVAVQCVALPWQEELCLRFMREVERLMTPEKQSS
# assayDetails: FAAH inhibition assay (Cayman Chemicals kit, AMC-arachidonoyl amide hydrolysis, fluorescence)
# Type: biochemical
reportedEndpoint: IC50 (µM)

compound="CCCCC/C=C\\C=C\\CCCCCCCCC(=O)NCC(=O)O [Compound 6]" measurementunit=µM endpointvalue=3.5
compound="CCCCC/C=C\\C=C\\CCCCCCCCC(=O)NC(C)C(=O)O (centres unmarked) [Compound 2]" measurementunit=µM endpointvalue=2.6
compound="CCCCCC/C=C/C=C\\CCCCCCCC(=O)NC(Cc1ccccc1)C(=O)O (centres unmarked) [Compound 7]" measurementunit=µM endpointvalue=11
compound="CCCCCCC(O)CCCCCCCCCCC(=O)NCC(=O)O (centres unmarked) [Compound 18]" measurementunit=µM endpointvalue=46
compound="CCCCCC/C=C/C=C/CCCCCCCC(=O)NCCC(=O)O [Compound 3]" measurementunit=µM endpointvalue=2.8
compound="CCCCCCC(O)C/C=C\\CCCCCCCC(=O)NCC(=O)O (centres unmarked) [Compound 14]" measurementunit=µM endpointvalue=26
compound="CCCCC/C=C\\C=C\\CCCCCCCCC(=O)NCCC(=O)O [Compound 4]" measurementunit=µM endpointvalue=2.8
compound="CCCCC/C=C\\C=C\\CCCCCCCCC(=O)NC(Cc1ccccc1)C(=O)O (centres unmarked) [Compound 8]" measurementunit=µM endpointvalue=11

* * *

# assayedTarget: human CB1 receptor (Homo sapiens (Human), UniProt P21554)
# Sequence (P21554 whole entry): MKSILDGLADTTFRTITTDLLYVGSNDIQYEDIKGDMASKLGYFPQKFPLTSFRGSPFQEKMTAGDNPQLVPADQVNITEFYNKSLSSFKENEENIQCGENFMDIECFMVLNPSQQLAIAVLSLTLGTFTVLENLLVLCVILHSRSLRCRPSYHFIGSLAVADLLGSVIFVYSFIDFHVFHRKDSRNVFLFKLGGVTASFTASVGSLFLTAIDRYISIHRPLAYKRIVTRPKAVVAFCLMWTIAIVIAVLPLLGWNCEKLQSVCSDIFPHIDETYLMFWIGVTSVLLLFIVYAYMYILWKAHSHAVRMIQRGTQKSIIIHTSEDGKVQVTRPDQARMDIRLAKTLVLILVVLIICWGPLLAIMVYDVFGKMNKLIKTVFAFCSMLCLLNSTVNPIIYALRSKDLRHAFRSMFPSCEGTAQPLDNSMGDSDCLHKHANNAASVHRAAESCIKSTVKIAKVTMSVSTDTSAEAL
# assayDetails: CB1 receptor binding assay, displacement of 3H CP-55,940 from membrane preparation
# conditionContext: inhibition of 3H CP-55,940 binding (1 nM), human CB1 membranes
reportedEndpoint: CB1 IC50

compound="CCCCC/C=C\\C=C\\CCCCCCCCC(=O)NCC(=O)O [Compound 6]" endpointvalue="No binding"
compound="CCCCC/C=C\\C=C\\CCCCCCCCC(=O)NC(C)C(=O)O (stereo not shown) [Compound 2]" endpointvalue="No binding"
compound="CCCCCCC(O)C/C=C\\CCCCCCCC(=O)NC(C)C(=O)O (stereo not shown) [Compound 12]" endpointvalue="no binding activities"
compound="CCCCCCC(O)C/C=C\\CCCCCCCC(=O)NCC(=O)O (stereo not shown) [Compound 14]" endpointvalue="no binding activities"
compound="CCCCCCC(O)CCCCCCCCCCC(=O)NCC(=O)O (stereo not shown) [Compound 18]" endpointvalue="no binding activities"
compound="CCCCCC/C=C/C=C\\CCCCCCCC(=O)NC(Cc1ccccc1)C(=O)O (stereo not shown) [Compound 7]" endpointvalue="No binding"
compound="CCCCCCC(O)CCCCCCCCCCC(=O)NC(C)C(=O)O (stereo not shown) [Compound 17]" endpointvalue="no binding activities"
compound="CCCCCC/C=C/C=C\\CCCCCCCC(=O)NCC(=O)O [Compound 5]" endpointvalue="No binding"
compound="CCCCC/C=C\\C=C\\CCCCCCCCC(=O)NC(Cc1ccccc1)C(=O)O (stereo not shown) [Compound 8]" endpointvalue="No binding"
compound="CCCCC/C=C\\C=C\\CCCCCCCCC(=O)NC(CCC(=O)O)C(=O)O (stereo not shown) [Compound 11]" endpointvalue="No binding"

* * *

# assayedTarget: human CB2 receptor (Homo sapiens (Human), UniProt P34972)
# Sequence (P34972 whole entry): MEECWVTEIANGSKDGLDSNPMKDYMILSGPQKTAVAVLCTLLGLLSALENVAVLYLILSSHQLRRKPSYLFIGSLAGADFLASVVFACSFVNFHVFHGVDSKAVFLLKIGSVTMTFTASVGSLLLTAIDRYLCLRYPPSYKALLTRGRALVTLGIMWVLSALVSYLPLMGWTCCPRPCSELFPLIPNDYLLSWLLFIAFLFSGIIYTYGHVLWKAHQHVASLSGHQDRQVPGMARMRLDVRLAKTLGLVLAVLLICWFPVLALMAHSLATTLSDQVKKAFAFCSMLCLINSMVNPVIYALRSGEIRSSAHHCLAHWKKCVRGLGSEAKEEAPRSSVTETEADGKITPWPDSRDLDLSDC
# assayDetails: CB2 receptor binding assay, displacement of 3H CP-55,940 from membrane preparation
# conditionContext: inhibition of 3H CP-55,940 binding (1 nM), human CB2 membranes
reportedEndpoint: CB2 IC50

compound=CCCCCC/C=C/C=C\CCCCCCCC(=O)NCC(=O)O assayedtarget="human CB2 receptor (Homo sapiens (Human), UniProt P34972)" endpointvalue="No binding"
compound="CCCCC/C=C\\C=C\\CCCCCCCCC(=O)NC(C)C(=O)O (stereo not shown)" assayedtarget="human CB2 receptor (Homo sapiens (Human), UniProt P34972)" endpointvalue="No binding"
compound="CCCCCCC(O)CCCCCCCCCCC(=O)NC(C)C(=O)O (stereo not shown)" assayedtarget="human CB2 receptor (Homo sapiens (Human), UniProt P34972)" endpointvalue="no binding activities"
compound="CCCCCC/C=C/C=C\\CCCCCCCC(=O)NC(Cc1ccccc1)C(=O)O (stereo not shown)" assayedtarget="human CB2 receptor (Homo sapiens (Human), UniProt P34972)" endpointvalue="No binding"
compound="CCCCC/C=C\\C=C\\CCCCCCCCC(=O)NC(Cc1ccccc1)C(=O)O (stereo not shown)" assayedtarget="human CB2 receptor (Homo sapiens (Human), UniProt P34972)" endpointvalue="No binding"
compound="CCCCCCC(O)CCCCCCCCCCC(=O)NCC(=O)O (stereo not shown)" assayedtarget="human CB2 receptor (Homo sapiens (Human), UniProt P34972)" endpointvalue="no binding activities"
compound="CCCCCCC(O)C/C=C\\CCCCCCCC(=O)NC(C)C(=O)O (stereo not shown)" assayedtarget="human CB2 receptor (Homo sapiens (Human), UniProt P34972)" endpointvalue="no binding activities"
compound="CCCCCCC(O)C/C=C\\CCCCCCCC(=O)NCC(=O)O (stereo not shown)" assayedtarget="human CB2 receptor (Homo sapiens (Human), UniProt P34972)" endpointvalue="no binding activities"
compound="CCCCC/C=C\\C=C\\CCCCCCCCC(=O)NC(CCC(=O)O)C(=O)O (stereo not shown)" assayedtarget="human CB2 receptor (Homo sapiens (Human), UniProt P34972)" endpointvalue="No binding"
compound=CCCCC/C=C\C=C\CCCCCCCCC(=O)NCC(=O)O assayedtarget="human CB2 receptor (Homo sapiens (Human), UniProt P34972)" endpointvalue="No binding"
